Data provenance is the NIST ThermoML archive (doi:10.1016/j.jct.2018.02.010).

experiment: refractive index (Na D-line) (dimensionless); details: 298.15 K; 101.33 kPa; Liquid; refractometer model RFM 81
Endpoint Name: refractive index

{"columns": ["Compound", "refractive index"],
 "data": [
  ["CCCCCC(=O)OC [methyl hexanoate]", 1.40443],
  ["CCCC(=O)OC [methyl butanoate]", 1.38486],
  ["CCCCC(=O)OC [methyl pentanoate]", 1.39628],
  ["COC(C)=O [methyl ethanoate]", 1.36008],
  ["CCCCCCC(=O)OC [methyl heptanoate]", 1.41086],
  ["CCC(=O)OC [methyl propanoate]", 1.37572],
  ["COC=O [methyl methanoate]", 1.34174]
]}
